molecular target: Human neutrophil elastase (HNE) (Homo sapiens, UniProt P08246 P08246:30-267); assay: flow; HNE on polystyrene beads, 2 mM MgCl2, 1% BSA, room temperature; details: tags: Athens Research and Technology, salt-free lyophilized solid; label: fluorescein; G-quartet with duplex ends
Sequence (P08246 30-267, one chain of several): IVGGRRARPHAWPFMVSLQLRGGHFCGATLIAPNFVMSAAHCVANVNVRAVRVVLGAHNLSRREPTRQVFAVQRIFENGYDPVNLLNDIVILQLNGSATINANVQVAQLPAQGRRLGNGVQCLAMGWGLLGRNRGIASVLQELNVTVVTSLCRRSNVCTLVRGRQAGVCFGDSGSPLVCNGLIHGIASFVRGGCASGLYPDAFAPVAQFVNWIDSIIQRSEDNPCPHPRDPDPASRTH
Measured property: Kd (nM)
Note: unit nM is implicit; provide only the numeric part.

Q) Quick one: Kd for TAGCGATACTGCGTGGGTTGGGGCGGGTAGGGCCAGCAGTCTCGT (ssDNA, 5' fluorescein followed by two hexaethylene glycol spacers [5' fluorescein + two hexaethylene glycol spacers (n1-n3, left out) before T1]) [DNA-LNK-5F] ?
A) 110
